From: ChEMBL document CHEMBL1909046

Target: Alpha-1A adrenergic receptor (Rattus norvegicus, UniProt P43140)
Sequence (P43140 whole entry): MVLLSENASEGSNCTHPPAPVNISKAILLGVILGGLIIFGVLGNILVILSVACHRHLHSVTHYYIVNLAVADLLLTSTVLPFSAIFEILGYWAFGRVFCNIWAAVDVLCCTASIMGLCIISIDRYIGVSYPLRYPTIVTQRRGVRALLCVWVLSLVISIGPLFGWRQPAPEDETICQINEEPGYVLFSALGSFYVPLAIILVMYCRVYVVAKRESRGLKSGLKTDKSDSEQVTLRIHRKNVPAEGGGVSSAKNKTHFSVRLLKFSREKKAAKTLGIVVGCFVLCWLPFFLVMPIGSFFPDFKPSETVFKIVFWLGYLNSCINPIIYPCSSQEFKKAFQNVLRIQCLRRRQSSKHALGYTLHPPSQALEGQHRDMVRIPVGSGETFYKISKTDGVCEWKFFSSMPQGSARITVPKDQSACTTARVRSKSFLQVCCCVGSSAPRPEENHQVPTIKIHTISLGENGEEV
Assay: DRUGMATRIX: Alpha-1A adrenergic receptor radioligand binding (ligand: prazosin)
Assay type: cell membranes, Wistar, Submaxillary gland, Membrane
Settings: Not Active = under 50% inhibition at 10 µM
OBSERVATION TYPE: IC50

{"SUBSTANCE": "ZIRCONIUM(IV) CHLORIDE", "OBSERVATION TYPE": "IC50", "RESULT": "Not Active"}
{"SUBSTANCE": "TRANSPLATIN", "OBSERVATION TYPE": "IC50", "RESULT": "Not Active"}
{"SUBSTANCE": "COBALTOUS CHLORIDE", "OBSERVATION TYPE": "IC50", "RESULT": "Not Active"}
{"SUBSTANCE": "COLISTIN", "OBSERVATION TYPE": "IC50", "RESULT": "Not Active"}

###

assay: DRUGMATRIX: ATPase, Na+/K+ enzyme inhibition (substrate: ATP); assay type: tissue-based, Sus scrofa, Heart; settings: Not Active = under 50% inhibition at 10 µM
OBSERVATION TYPE: IC50

{"MOLECULE": "CS(=O)(=O)Nc1ccc([N+](=O)[O-])cc1Oc1ccccc1 [NIMESULIDE]", "IC50": "Not Active"}
{"MOLECULE": "O=C(O)CC(O)(CC(=O)O)C(=O)O [CITRIC ACID]", "IC50": "Not Active"}
{"MOLECULE": "CC(C)(C(=O)O)c1ccc(C(O)CCCN2CCC(C(O)(c3ccccc3)c3ccccc3)CC2)cc1 (centres undefined) [FEXOFENADINE]", "IC50": "Not Active"}
{"MOLECULE": "Cc1cccc(C)c1NC(=O)C1CCCCN1C (centres undefined) [MEPIVACAINE]", "IC50": "Not Active"}
{"MOLECULE": "CC1CCC(NC(=O)N(CCCl)N=O)CC1 (centres undefined) [SEMUSTINE]", "IC50": "Not Active"}

COc1cccc2c1C(=O)c1c(O)c3c(c(O)c1C2=O)C[C@@](O)(C(C)=O)C[C@@H]3O[C@H]1C[C@H](N)[C@H](O)[C@H](C)O1 [DAUNORUBICIN] has a reported IC50 of Not Active

What the record says about CC(=O)OCC(=O)[C@@]1(O)CC[C@H]2[C@@H]3CCC4=CC(=O)CC[C@]4(C)[C@@]3(F)[C@@H](O)C[C@@]21C [FLUDROCORTISONE ACETATE] : IC50 is Not Active

The reported value for NC(=O)c1cccnc1 [NIACINAMIDE] in terms of IC50 is Not Active

Form: molecule = CC(O)(P(=O)(O)O)P(=O)(O)O [ETIDRONIC ACID] ; IC50 = Not Active
